test: Pharmacokinetics of decitabine in IVAP rabbit model; format: in vivo, rabbits; details: rabbit, portal vein plasma, po, 2.5 mg/kg, Oral 2.5 mg/kg; read-out: Mean AUC0-inf in Portal Vein
MEASURED_ATTRIBUTE: AUC(0-inf) (ng·h/mL)
Give the quantity in ng·h/mL, number only.

Requested field: AUC(0-inf). Item: Nc1ncn([C@H]2C[C@H](O)[C@@H](CO)O2)c(=O)n1
397

---

assay: Pharmacokinetics of decitabine in IVAP rabbit model; assay type: in vivo, rabbits; settings: rabbit, plasma, iv, 0.75 mg/kg, IV 0.75 mg/kg; read-out: IV AUC0-inf, individual
MEASURED_ATTRIBUTE: AUC(0-inf) (ng·h/mL)
Give the quantity in ng·h/mL, number only.

Requested field: AUC(0-inf). Item: Nc1ncn([C@H]2C[C@H](O)[C@@H](CO)O2)c(=O)n1
323

Where do the numbers come from? From patent US20040162263A1.
